# System: MS2 coat protein
# METHOD SUMMARY: apparent KD of MS2 coat protein; designed switch direction (-1 OFF switch, 1 ON switch): 1; higher = weaker reporter binding
# PARTICULARS: Eterna round: R95; input ligand: FMN 200 uM
Note: every record was labeled by where its apparent KD of MS2 coat protein sits among lower level (below 30 nM), middle level (30 nM to below 50 nM), upper level (50 nM or more)

Previously resolved entries follow.
[[record]]
chain = "AUAAAACAUGAGGAUCACCCAUGUCAACAAAGUCGAGGAUAUGGGCAAAGAAAAUAAUAACCAGAAGGCGAAUAAU [salish99_ss1_r3_054] (puzzle: Same State 1)"
assigned_category = "middle level"

[[record]]
chain = "CACAAUCUAUCUGAGGAUAUCAUGAAAAAAACAUGAGGAUCACCCAUGUGCAGGAAAACUGCAUAUGAGAAGGCAGAUAGAUUGU [salish99_SS2_r3_015] (puzzle: Same State 2)"
assigned_category = "lower level"

[[record]]
chain = "UUGCGCUGUCGAGAGGAUAUGCGGUGAUGGACAUGAGGAUCACCCAUGUUAGCGAUAGCAUUACGGUAGAAGGCUCUACAGCUGC [salish99_ss2_r3_094] (puzzle: Same State 2)"
assigned_category = "lower level"


Class? Entry: GACAAUCUAUCUGAGGAUAUCAUGAAAAAAACAUGAGGAUCACCCAUGUGCAGGAAAACUGCAUAUGAGAAGGCAGAUAGAUUGC [salish99_SS2_r3_012] (puzzle: Same State 2) middle level

Returns: class label. Input: CUCCCACGUGCACAGGAUAUGCCGGGAUGCACAUGAGGAUCACCCAUGUAAUCCUGAAAAUAAAAGCAGAAGGGUGAUCAUGGGU [Teestege] (puzzle: Same State 2) middle level

GET /class?item= AUAAUAAUAAGUGAGGAUAUGUUGAUAAAGACAUGAGGAUCACCCAUGUGAAAUAAAAUAAUAAUACAGAAGGCACAAUAAUAAA [JMF's solution 2] (puzzle: Same State 2) lower level

# bin lookup: classify UUAAAACAUGAGGAUCACCCAUGUAAUAUAAUGGGAGGAUAUCUGAUUUAAUUAAAUUUAAGAGAAGGCCUAAAUU [Mat - Same State 1 - Mod of Eli - D55] (puzzle: Same State 1) by its apparent KD of MS2 coat protein lower level

Category lookup for the sequence CUGUCUACAGGUGUCUUUGCUCGUUUUAUACAUGAGGAUCACCCAUGUUAUAGCCCGGUGCUUGCGCUGGGCUGAUU [JL ViennaUCT Tearor mod 8] (puzzle: Sensor for hsa-mir-208a) upper level

Which class does AACAAUCUAUCUUAGGAUAUCAUGAAAUAAACAUGAGGAUCACCCAUGUGCAGGAAAACUGCAUAUGAGAAGGCAGAUAGAUUGA [salish99_ss2_r3_026] (puzzle: Same State 2) fall in? upper level

Exam item: assign ACCCAAAGUAUAUGGGAACAAGCUUUUUAACAUGAGGAUCACCCAUGUACUCGUCUUGUAAGCAGUCGAAAGACUGC [Sensor 100 - 1] (puzzle: Sensor for hsa-mir-208a) to the correct category. upper level

Which class does GUGGUGUAGAUACAGGAUAUGUUGCUCGUAACAUGAGGAUCACCCAUGUAUCUAUGAGAAUAAAUGCAGAAGGGUGCACACCACG [Mat - Same State 2 - Mod of UCT - D73] (puzzle: Same State 2) fall in? lower level

State the class of the sequence shown: AUUAAACAUGAGGAUCACCCAUGUCAUCAAAGUCGAGGAUAUGGGCAAAUAAAAUAAGAACCAGAAGGCGAAUAAU [salish99_ss1_r3_073] (puzzle: Same State 1) upper level

Place this sequence in its band: UGGUAACAUGAGGAUCACCCAUGUCAAAUGAAUCGAGGAUAUGGGAACUAACAACACAAACUAGAAGGCGAACUUG [Altered State 1-9 - Jieux - Same State 1] (puzzle: Same State 1) middle level

Exam item: assign CGUCCGGCCUGUGCUGGCCGGUUGCUUGUACAUGAGGAUCACCCAUGUUCUUGUGCUGGCUUUUUGCUCGUCUUGUG [salish99_mir208a_019] (puzzle: Sensor for hsa-mir-208a) to the correct category. middle level

# bin lookup: classify AGUCCAGCCUGAGCUGGACAAAAGCAUGUACAUGAGGAUCACCCAUGUCAUGUAUAAGCUUUUUGCUCGUCUUAAUA [Zipper 49 - 11] (puzzle: Sensor for hsa-mir-208a) by its apparent KD of MS2 coat protein lower level

Category of AGUAUACAUGAGGAUCACCCAUGUCAGUAACUGACAGGAUAUGCGUUGCAUCACUGUAAUGCAGAAGGGUCUUGUA [Same State 1 - Mod of JMF's solution 1] (puzzle: Same State 1) : upper level

Any idea which band GGGCCAACGAGCGAGGAUAUGGCCUCGGACACAUGAGGAUCACCCAUGUCGAAAAGGUCAGGAGGCUAGAAGGCGUAAAAUGCCA [Tiqusoor] (puzzle: Same State 2) is in? lower level

# classify by apparent KD of MS2 coat protein band: GAGGGACAUGAGGAUCACCCAUGUGGAGGGAGUAAAGGAUAUUAGUGUGGGAAAGUAGGGUAAGAAGGUUGAUUGG [JR_SS1_Sub084] (puzzle: Same State 1) upper level
